target: ROCK2 (Homo sapiens (Human), UniProt O75116);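 note: rho kinase enzyme reaction halted with EDTA, phospho- and non-phospho peptide separated for read-out, kinase activity inhibition derived across a dose-response series, DMSO under 2%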
Sequence (O75116 whole entry, species assumed): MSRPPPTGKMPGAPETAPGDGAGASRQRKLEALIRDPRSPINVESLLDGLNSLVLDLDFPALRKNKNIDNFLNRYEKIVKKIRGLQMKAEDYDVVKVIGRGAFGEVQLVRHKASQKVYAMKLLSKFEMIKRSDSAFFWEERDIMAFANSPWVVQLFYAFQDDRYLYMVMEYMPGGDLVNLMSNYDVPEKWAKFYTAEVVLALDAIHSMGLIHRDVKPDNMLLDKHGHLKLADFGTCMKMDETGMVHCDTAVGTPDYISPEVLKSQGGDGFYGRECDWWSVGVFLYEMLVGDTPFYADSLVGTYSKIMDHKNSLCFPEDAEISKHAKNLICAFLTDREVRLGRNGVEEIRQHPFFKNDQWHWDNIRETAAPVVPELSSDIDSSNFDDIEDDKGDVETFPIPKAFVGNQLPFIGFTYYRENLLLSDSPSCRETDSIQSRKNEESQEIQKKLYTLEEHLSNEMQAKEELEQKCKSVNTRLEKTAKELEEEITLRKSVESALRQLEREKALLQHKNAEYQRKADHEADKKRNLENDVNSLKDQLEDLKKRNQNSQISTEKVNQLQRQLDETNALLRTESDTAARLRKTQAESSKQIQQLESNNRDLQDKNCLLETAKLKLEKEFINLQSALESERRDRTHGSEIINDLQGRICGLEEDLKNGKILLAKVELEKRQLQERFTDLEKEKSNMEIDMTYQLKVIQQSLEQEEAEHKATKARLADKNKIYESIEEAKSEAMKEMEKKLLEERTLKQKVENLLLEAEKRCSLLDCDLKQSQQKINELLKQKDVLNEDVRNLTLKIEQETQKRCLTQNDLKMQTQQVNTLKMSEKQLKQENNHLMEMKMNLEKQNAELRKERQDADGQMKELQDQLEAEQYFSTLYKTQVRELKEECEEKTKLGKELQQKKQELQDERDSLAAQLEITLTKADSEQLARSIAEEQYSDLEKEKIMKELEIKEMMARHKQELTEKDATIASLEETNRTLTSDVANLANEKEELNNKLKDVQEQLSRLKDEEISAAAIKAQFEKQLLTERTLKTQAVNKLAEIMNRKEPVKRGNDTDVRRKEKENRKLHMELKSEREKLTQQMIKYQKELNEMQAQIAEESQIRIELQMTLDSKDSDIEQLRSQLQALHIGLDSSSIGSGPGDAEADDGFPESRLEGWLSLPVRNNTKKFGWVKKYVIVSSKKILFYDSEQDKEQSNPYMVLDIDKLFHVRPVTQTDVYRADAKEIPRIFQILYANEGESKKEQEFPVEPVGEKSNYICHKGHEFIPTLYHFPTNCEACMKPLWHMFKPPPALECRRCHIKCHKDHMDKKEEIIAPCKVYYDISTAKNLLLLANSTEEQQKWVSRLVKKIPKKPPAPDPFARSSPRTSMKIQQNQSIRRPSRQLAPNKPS
pIC50: −log10 of the molar value.

{"Compound": "COc1ccc(NC2CCN(c3ccc(-c4cn[nH]c4)cc3F)C2=O)cc1F (single isomer, unassigned)", "pIC50": "5.66 to 7.00"}
{"Compound": "COc1cccc(NC2CCN(c3ncc(-c4cn[nH]c4)cc3F)C2=O)c1 (single isomer, unassigned)", "pIC50": "5.66 to 7.00"}
{"Compound": "CCc1cc(N2CCC(Nc3ccc(F)c(OC)c3)C2=O)ccc1-c1cn[nH]c1 (single isomer, unassigned)", "pIC50": "7.00 to 8.00"}
{"Compound": "Cc1nc(N2CCC(Nc3cccc(OCC4CC4)c3)C2=O)ccc1-c1cn[nH]c1 (single isomer, unassigned)", "pIC50": "7.00 to 8.00"}
{"Compound": "COc1cc(NC2CCN(c3ccc(-c4cn[nH]c4)c(OCCN(C)C)c3)C2=O)ccc1F (racemic)", "pIC50": "5.66 to 7.00"}
{"Compound": "COc1cccc(NC2CCN(c3cc(F)c(-c4cn[nH]c4)c(F)c3)C2=O)c1 (single isomer, unassigned)", "pIC50": "> 8.00"}
{"Compound": "COc1cc(NC2CCN(c3ccc(-c4cn[nH]c4)c(F)c3)C2=O)ccc1F (single isomer, unassigned)", "pIC50": "> 8.00"}
{"Compound": "COc1cc(NC2CCN(c3ccc(-c4cn[nH]c4)c(OC)c3)C2=O)cc(OC)c1 (single isomer, unassigned)", "pIC50": "5.66 to 7.00"}
{"Compound": "COc1cccc(NC2CCN(c3ccc(-c4cn[nH]c4)cc3)C2=O)c1C (single isomer, unassigned)", "pIC50": "7.00 to 8.00"}
{"Compound": "COc1cc(F)ccc1NC1CCN(c2ccc(-c3cn[nH]c3)c(OC)c2)C1=O (single isomer, unassigned)", "pIC50": "5.66 to 7.00"}
{"Compound": "COc1ccc(N[C@@H]2CCN(c3ccc(-c4cn[nH]c4)cc3)C2=O)c(OC)c1", "pIC50": "5.66 to 7.00"}
{"Compound": "COc1cccc(NC2CCN(c3ccc(-c4cn[nH]c4)c(F)c3)C2=O)c1 (single isomer, unassigned)", "pIC50": "> 8.00"}
{"Compound": "COc1cccc(NC2CCN(c3cc(F)c(-c4cn[nH]c4)cc3F)C2=O)c1 (single isomer, unassigned)", "pIC50": "7.00 to 8.00"}
{"Compound": "Cc1nc(N2CCC(Nc3cccc(OC(F)F)c3)C2=O)ccc1-c1cn[nH]c1 (single isomer, unassigned)", "pIC50": "7.00 to 8.00"}

These entries and their values trace back to patent US10112929B2.
